molecular target: human μ opiate receptor (Homo sapiens, UniProt P35372); construct: purchased PerkinElmer Life Sciences, Zaventem, Belgium RB-HOM; host or cells: CHO-K1 cells (membrane preparation); test: Affinity for the human μ opiate receptor ([3H]-naloxone displacement, CHO-K1 receptor membrane preparation, SPA); format: binding; settings: 1.5 h, Table 2; test concentration 1 μM; read-out: μ receptor
Sequence (P35372 whole entry): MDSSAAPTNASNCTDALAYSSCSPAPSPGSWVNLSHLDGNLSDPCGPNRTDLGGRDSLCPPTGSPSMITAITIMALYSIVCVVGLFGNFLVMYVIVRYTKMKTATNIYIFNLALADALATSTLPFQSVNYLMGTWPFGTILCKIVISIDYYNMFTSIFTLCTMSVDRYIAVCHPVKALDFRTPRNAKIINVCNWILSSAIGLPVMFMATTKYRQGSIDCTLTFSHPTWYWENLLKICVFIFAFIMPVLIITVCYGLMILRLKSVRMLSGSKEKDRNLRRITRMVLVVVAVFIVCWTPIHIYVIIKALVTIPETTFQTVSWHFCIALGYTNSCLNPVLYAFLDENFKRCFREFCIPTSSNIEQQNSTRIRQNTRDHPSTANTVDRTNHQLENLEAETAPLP
quantity.kind: inhibition at 1 µM

Please review the following examples before continuing.
Lab book: inhibition at 1 µM of CN(C)C(c1ccccc1)C1CCC(CNC(=O)COC2CCCN(S(=O)(=O)c3c(Cl)cc(Cl)cc3Cl)C2)CC1 (centres unmarked) noted as 90%

What the record says about CN(Cc1ccccc1)C(c1ccccc1)C1CCC(NC(=O)COCCN(C)S(=O)(=O)c2c(Cl)cc(Cl)cc2Cl)CC1 (centres unmarked) : inhibition at 1 µM is 91%

// field: inhibition at 1 µM; key: O=C(COCCN(C1CC1)S(=O)(=O)c1c(Cl)cc(Cl)cc1Cl)NC1CCC(C(c2ccccc2)N2CCCC2)CC1 (centres unmarked) ; value = 45%

compound COc1cc(C)c(S(=O)(=O)N(C)CCOCC(=O)NC2CCC(C(c3ccccc3)N3CCOCC3)CC2)c(C)c1C (centres unmarked) , inhibition at 1 µM observed: -11%

Entry CN(C)C(c1ccccc1)C1CCC(NC(=O)CCOCN(C)S(=O)(=O)c2c(Cl)cc(Cl)cc2Cl)CC1 (centres unmarked) ; inhibition at 1 µM = 92%

Others:
Measured inhibition at 1 µM, CN(C)C(c1ccccc1)C1CCC(NC(=O)COCCN(C)S(=O)(=O)c2c(Cl)cc(Cl)cc2Cl)CC1 (centres unmarked) : 91%

GET /value?item= CN(CCOCC(=O)NC1CCC(C(c2ccccc2)N2CCCC2)CC1)S(=O)(=O)c1c(Cl)cc(Cl)cc1Cl (centres unmarked) &field=inhibition at 1 µM returns 46%

// sample CN(C)C(c1ccccc1)C1CCC(NC(=O)COC2CCN(S(=O)(=O)c3c(Cl)cc(Cl)cc3Cl)C2)CC1 (centres unmarked) , its inhibition at 1 µM was 94%

====

molecular target: serotonin (5-HT) reuptake (Rattus norvegicus, UniProt P31652); construct: synaptosomes are freshly isolated from areas of the rat brain; from tissue; host or cells: rat brain synaptosomes (P2 fraction); experiment: Inhibition of serotonin (5HT) reuptake in synaptosomes from rat brain; format: biochemical; details: test concentration of 10 μM
Sequence (P31652 whole entry): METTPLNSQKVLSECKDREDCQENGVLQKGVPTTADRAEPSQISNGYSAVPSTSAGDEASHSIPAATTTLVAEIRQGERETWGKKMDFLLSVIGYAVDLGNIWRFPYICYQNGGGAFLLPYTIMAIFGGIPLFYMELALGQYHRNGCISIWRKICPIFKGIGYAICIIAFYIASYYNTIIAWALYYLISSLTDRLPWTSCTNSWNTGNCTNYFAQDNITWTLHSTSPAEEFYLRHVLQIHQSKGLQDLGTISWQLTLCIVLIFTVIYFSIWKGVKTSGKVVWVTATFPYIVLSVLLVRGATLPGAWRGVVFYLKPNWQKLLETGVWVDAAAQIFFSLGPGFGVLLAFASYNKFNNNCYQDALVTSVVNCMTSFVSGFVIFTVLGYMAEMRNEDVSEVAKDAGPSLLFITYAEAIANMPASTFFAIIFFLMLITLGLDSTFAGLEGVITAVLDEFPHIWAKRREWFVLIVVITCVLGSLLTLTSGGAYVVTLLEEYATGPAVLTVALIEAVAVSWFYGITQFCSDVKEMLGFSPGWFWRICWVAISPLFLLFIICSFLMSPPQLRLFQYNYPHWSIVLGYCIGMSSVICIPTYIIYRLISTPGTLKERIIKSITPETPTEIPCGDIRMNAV
Entries and their measured 5-HT (inhibition of reuptake of serotonin, % inhibition) follow.
# number only, unit % dropped from output

Check out these entries, answers already filled in.
Entry CN(C)C(c1ccc(F)cc1)C1CCC(CCNC(=O)COCC2CCCN(S(=O)(=O)c3ccccc3)C2)CC1 (stereo not drawn) — recorded 5-HT (inhibition of reuptake of serotonin, % inhibition) = 97

The molecule listed as COc1ccc(S(=O)(=O)N2CCCCC2CCOCC(=O)NCCC2CCC(C(c3ccc(F)cc3)N(C)C)CC2)cc1 (stereo not drawn) shows 5-HT (inhibition of reuptake of serotonin, % inhibition) equal to 97

Value of measured 5-HT (inhibition of reuptake of serotonin, % inhibition) for the entry CN(C)C(CCc1ccccc1)C1CCC(CNC(=O)COC2CCN(S(=O)(=O)c3cccc(C(F)(F)F)c3)C2)CC1 (stereo not drawn) : 90

Kindly note the recorded 5-HT (inhibition of reuptake of serotonin, % inhibition) for COc1ccc(S(=O)(=O)N2CCCC2COCC(=O)NCC2CCC(C(c3ccc(F)cc3)N(C)C)CC2)cc1 (stereo not drawn) , which is 98

Item: CN(C)C(c1ccc(F)cc1)C1CCC(CCNC(=O)COCCN(Cc2ccccc2)S(=O)(=O)c2ccccc2)CC1 (stereo not drawn) | 5-HT (inhibition of reuptake of serotonin, % inhibition): 97

---
5-HT (inhibition of reuptake of serotonin, % inhibition) reported for this molecule CN(C)C(c1ccc(Cl)cc1)C1CCC(CCNC(=O)COC2CCN(S(=O)(=O)c3ccccc3)C2)CC1 (stereo not drawn) : 88

Recorded result, COc1ccc(S(=O)(=O)N2CCCCC2COCC(=O)NC2CCC(C(c3cccs3)N(C)C)CC2)cc1 (stereo not drawn) , 5-HT (inhibition of reuptake of serotonin, % inhibition): 73

Briefly, 5-HT (inhibition of reuptake of serotonin, % inhibition) measured for Cc1cc(C)c(S(=O)(=O)N2CCC(OCC(=O)NCCC3CCC(C(c4ccc(Cl)cc4)N(C)C)CC3)C2)c(C)c1 (stereo not drawn) : 86

5-HT (inhibition of reuptake of serotonin, % inhibition) for CN(C)C(c1ccc(Cl)cc1)C1CCC(CCNC(=O)COCCN(Cc2ccccc2)S(=O)(=O)c2ccccc2)CC1 (stereo not drawn) is 95

Measured 5-HT (inhibition of reuptake of serotonin, % inhibition), COc1cc(C)c(S(=O)(=O)N2CCCC(OCC(=O)NC3CCC(C(c4cccc(F)c4)N(C)C)CC3)C2)c(C)c1C (stereo not drawn) : 85

Query COc1cc(C)c(S(=O)(=O)N2CCC(OCC(=O)NCC3CCC(C(c4ccc(Cl)cc4)N(C)C)CC3)C2)c(C)c1C (stereo not drawn) yields 5-HT (inhibition of reuptake of serotonin, % inhibition) of 88

Data point: CN(C)C(c1cccc(F)c1)C1CCC(CCNC(=O)COCCN2CCN(S(=O)(=O)c3ccccc3)CC2)CC1 (stereo not drawn) ; 5-HT (inhibition of reuptake of serotonin, % inhibition) = 96

====

Target: human μ opiate receptor (Homo sapiens, UniProt P35372)
Construct: purchased PerkinElmer Life Sciences, Zaventem, Belgium RB-HOM; host or cells: CHO-K1 cells (membrane preparation)
Assay: Affinity for the human μ opiate receptor ([3H]-naloxone displacement, CHO-K1 receptor membrane preparation, SPA)
Format: binding
Settings: test concentration of 1 μM
Description: Binding data of the compounds on the μ opioid receptor and data on the inhibition of reuptake of serotonin (5-HT) are given in Table 1. The data for the μ receptor were measured at a test concentration of 1 μM, and those for the serotonin reuptake at 10 μM. The values are stated in % inhibition. […] The receptor affinity for the human p opiate receptor is determined in a homogeneous set-up in microtitre plates. […]
quantity.kind: μ (binding on the μ opioid receptor, % inhibition)
Provide a numeric answer, followed by its unit.

Solved entries (count: 4):
// CN(C)C(c1cccc(F)c1)C1CCC(CNC(=O)COCCN2CCN(S(=O)(=O)c3ccccc3)CC2)CC1 (centres unmarked) : μ (binding on the μ opioid receptor, % inhibition) value = 60%

Cc1ccc(S(=O)(=O)N(C)CCOCC(=O)NCCC2CCC(C(c3ccc(Cl)cc3)N(C)C)CC2)cc1 (centres unmarked) yielded μ (binding on the μ opioid receptor, % inhibition) of 60%

# μ (binding on the μ opioid receptor, % inhibition) (molecule: CN(C)C(c1ccc(F)cc1)C1CCC(CNC(=O)COC2CCCCC2N(C)S(=O)(=O)c2ccc(Cl)c(Cl)c2)CC1 (centres unmarked) ) is 60%

Looking up CN(C)C(c1cccc(F)c1)C1CCC(CNC(=O)COC2CCCN(S(=O)(=O)c3ccccc3)C2)CC1 (centres unmarked) , I found its μ (binding on the μ opioid receptor, % inhibition) recorded as 69%

---
molecule CN(C)C(c1ccc(Cl)cc1)C1CCC(CNC(=O)COCC2CCCN(S(=O)(=O)c3ccccc3)C2)CC1 (centres unmarked) , μ (binding on the μ opioid receptor, % inhibition) observed: 63%

molecule CN(C)C(c1ccc(Cl)cc1)C1CCC(CNC(=O)COC2CCCCC2N(C)S(=O)(=O)c2ccc(Cl)c(Cl)c2)CC1 (centres unmarked) , μ (binding on the μ opioid receptor, % inhibition) observed: 74%

Sure, the documented μ (binding on the μ opioid receptor, % inhibition) for COc1ccc(S(=O)(=O)N2CCC(OCC(=O)NC3CCC(C(c4cccc(F)c4)N(C)C)CC3)C2)cc1OC (centres unmarked) is 67%

Looking up CN(C)C(c1ccc(F)cc1)C1CCC(CNC(=O)COC2CCN(S(=O)(=O)c3ccccc3)CC2)CC1 (centres unmarked) , I found its μ (binding on the μ opioid receptor, % inhibition) recorded as 11%

====

biological target: human bradykinin 1 receptor (B1R) (Homo sapiens); construct: expressed in transfected cells; host or cells: CHO K1 cells; experiment: Functional investigation on the human bradykinin 1 receptor (B1R), Ca2+ FLIPR assay in CHO K1 hB1R cells; type: cell-based; details: CHO-K1, B1R antagonism human; test substance 10 μM; Ca2+ FLIPR, CHO K1 hB1R cells; read-out: B1R Ant. h [10 μM] % Inhibition
Sequence (P46663 whole entry): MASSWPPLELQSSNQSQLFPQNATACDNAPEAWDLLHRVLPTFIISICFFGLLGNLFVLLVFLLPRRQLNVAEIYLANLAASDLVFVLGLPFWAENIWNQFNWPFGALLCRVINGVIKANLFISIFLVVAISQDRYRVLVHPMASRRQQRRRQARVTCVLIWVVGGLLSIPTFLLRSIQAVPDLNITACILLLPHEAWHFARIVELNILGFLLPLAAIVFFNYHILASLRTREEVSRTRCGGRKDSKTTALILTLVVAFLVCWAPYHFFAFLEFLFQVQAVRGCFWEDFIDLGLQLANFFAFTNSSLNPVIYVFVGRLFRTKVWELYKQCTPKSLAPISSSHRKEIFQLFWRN
Category scheme (inhibition at 10 µM): zone 1 (below 20%), zone 2 (20% to below 60%), zone 3 (60% or more)

Recorded results for 3 compounds are shown here.
stdin: Assign a bin to CN(C)C(c1ccccc1)C1CCC(NC(=O)CNC(=O)c2nc(CS(=O)(=O)c3ccccc3)no2)CC1 (stereo not shown) [Example 769]
stdout: zone 1

stdin: Tag the class for CN(CCOCC(=O)NC1CCC(C(c2ccccc2)N2CCOCC2)CC1)S(=O)(=O)c1c(Cl)cc(C(F)(F)F)cc1Cl (stereo not shown) [Example 689]
stdout: zone 2

stdin: Textbook exercise: identify the category of the compound given here, O=C(COC1CCN(S(=O)(=O)c2c(Cl)cc(Cl)cc2Cl)C1)NC1CCC(C(c2ccccc2)N2CCOCC2)CC1 (stereo not shown) [Example 610] , according to its measured value.
stdout: zone 1

---
stdin: # bin label for COc1ccc(S(=O)(=O)N2CCCCC2COCC(=O)NC2CCC(C(c3ccccc3)N(C)C)CC2)c(OC)c1 (stereo not shown) [Example 187]
stdout: zone 1

stdin: State the class of the compound shown: CN1CCN(C(c2ccccc2)C2CCC(NC(=O)COC3CCCN(S(=O)(=O)c4c(Cl)cc(Cl)cc4Cl)C3)CC2)CC1 (stereo not shown) [Example 692]
stdout: zone 3

stdin: Hello team, could you let me know which band the following compound falls into: Cc1cc(C)c(S(=O)(=O)N(C)CCOCC(=O)NCC2CCC(C(c3cccs3)N(C)C)CC2)c(C)c1 (stereo not shown) [Example 57]
stdout: zone 3

stdin: Category lookup for the compound Cc1ccc(S(=O)(=O)N(C)CCOCC(=O)NCCC2CCC(C(c3cccs3)N(C)C)CC2)cc1 (stereo not shown) [Example 82]
stdout: zone 1

stdin: Which class is correct for the following compound? O=C(COC1CCN(S(=O)(=O)c2c(Cl)cc(Cl)cc2Cl)C1)NC1CCC(C(CCc2ccccc2)N2CCCCC2)CC1 (stereo not shown) [Example 667]
stdout: zone 2

stdin: Input COc1cc(C)c(S(=O)(=O)N2CCC(OCC(=O)NC3CCC(C(c4cccs4)N(C)C)CC3)C2)c(C)c1 (stereo not shown) [Example 98] ; output its category
stdout: zone 3

stdin: Please indicate the class for Cc1cc(C)c(S(=O)(=O)N2CCC(OCC(=O)NCCC3CCC(C(c4cccs4)N(C)C)CC3)C2)c(C)c1 (stereo not shown) [Example 71] based on its inhibition at 10 µM.
stdout: zone 3

stdin: State the band of COc1cc(C)c(S(=O)(=O)N2CCCC(OCC(=O)NCC3CCC(C(c4ccccc4)N4CCCC4)CC3)C2)c(C)c1 (stereo not shown) [Example 648]
stdout: zone 3

stdin: Class for CN(C)C(c1ccccc1)C1CCC(NC(=O)COCC2CCCCN2S(=O)(=O)c2ccc(Cl)cc2)CC1 (stereo not shown) [Example 95] ?
stdout: zone 2

stdin: // bin(item) where item = CN(CCOCC(=O)NC1CCC(C(CCc2ccccc2)N2CCCCC2)CC1)S(=O)(=O)c1c(Cl)cc(C(F)(F)F)cc1Cl (stereo not shown) [Example 671]
stdout: zone 2
